Reported Emax values for a set of compounds
# experimental_target: human mAChR M1 (Homo sapiens, UniProt P11229)
# Sequence (P11229 whole entry): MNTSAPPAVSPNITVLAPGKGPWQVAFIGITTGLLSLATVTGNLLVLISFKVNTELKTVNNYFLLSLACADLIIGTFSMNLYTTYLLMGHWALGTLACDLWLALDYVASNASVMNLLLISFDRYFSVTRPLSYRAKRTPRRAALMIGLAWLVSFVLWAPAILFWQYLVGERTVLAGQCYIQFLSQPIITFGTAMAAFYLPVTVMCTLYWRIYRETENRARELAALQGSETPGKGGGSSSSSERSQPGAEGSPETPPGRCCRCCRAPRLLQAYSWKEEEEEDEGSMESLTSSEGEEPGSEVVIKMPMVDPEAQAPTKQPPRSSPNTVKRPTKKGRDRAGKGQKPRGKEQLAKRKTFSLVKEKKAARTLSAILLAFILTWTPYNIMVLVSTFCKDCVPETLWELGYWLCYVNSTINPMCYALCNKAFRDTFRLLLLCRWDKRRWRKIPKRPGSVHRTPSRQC
# procedure_text: mAChR M1 cell-based functional assay (calcium mobilization), agonist activity upon compound addition alone
# test_settings: CHO-K1 cells expressing hM1; compound alone; relative to the maximum for acetylcholine

What value of Emax on human mAChR M1 (Homo sapiens, UniProt P11229) does Cn1cc(-c2ccc(Cc3cc(C(=O)NC4CCOCC4(C)C)nc(-c4ccn(C)n4)c3)cn2)cn1 (centres unmarked) have?
< 5%

Repeat with Cc1c(Cc2ccc(-n3cccn3)cc2)cc(C(=O)NC[C@@H]2CCCO2)nc1-c1ccn(C)n1
< 5%

And Cc1nc(-c2ccc(Cc3cc(C(=O)N[C@H]4CCC[C@@H]4O)nc(-n4cccn4)c3)cc2)co1 ?
< 5%

Next up: Cc1c(Cc2ccc(-c3ccn(C)n3)nc2)cc(C(=O)N[C@H]2CCOC[C@@H]2O)nc1-n1cccn1
23%

Let us now turn to Cn1cc(-c2ccc(Cc3cc(C(=O)NC[C@@H]4CCCO4)nc(-c4ccn(C)n4)c3)cn2)cn1
< 5%

Follow-up entry: Cn1ccc(-c2ccc(Cc3cc(C(=O)NC4CCOCC4)nc(-c4ccn(C)n4)c3)cc2)n1
< 5%

Follow-up entry: Cc1c(Cc2ccc(-c3ccn(C)n3)cc2)cc(C(=O)N[C@H]2CCCC[C@@H]2O)nc1-c1ccn(C)n1
13%

Likewise for Cc1nc(-c2ccc(Cc3cc(C(=O)N[C@H]4CCCC[C@@H]4O)nc(-n4cccn4)c3)cc2)co1 ?
11%
